- METHOD_DESCRIPTION: Drying behaviour of crystallisates in dependence on residual moisture and product purity (tempering in sealed vials, visual points classification)
- Format: physicochemical
- Design: key: 5 points=sample unchanged; 4 points=sample compacted/started to dissolve; 3 points=sample visibly started to dissolve; 2 points=sample cloudy highly viscous solution; 1 point=sample dissolved to clear solution
- COND: Temperature 50 °C, test duration 24 h, sealed vial, shaken
MEASURED_METRIC: Visual classification at the end of the tempering step (points system)
I'd appreciate a reply containing only the number, no unit.

Worked set:
COMPOUND	RECORDED_NUMBER
O=P(O)(O)CN(CCN(CP(=O)(O)O)CP(=O)(O)O)CCN(CP(=O)(O)O)CP(=O)(O)O [unwashed quality 51 [% by mass] residual moisture]	5
O=P(O)(O)CN(CCN(CP(=O)(O)O)CP(=O)(O)O)CCN(CP(=O)(O)O)CP(=O)(O)O [unwashed quality 19 [% by mass] residual moisture]	5

Here is another compound to look at.
Problem: Need Visual classification at the end of the tempering step (points system) of O=P(O)(O)CN(CCN(CP(=O)(O)O)CP(=O)(O)O)CCN(CP(=O)(O)O)CP(=O)(O)O [unwashed quality 36 [% by mass] residual moisture] , thanks.
Solution: 5
